The measured values listed here are drawn from the Human Domainome abundance scans (Beltran et al. 2025).

Give abundance fitness for every item shown.
B1: Transcription factor SOX-4, residues 60 to 127; numbered along this chain, Q06945 (parent)
chain: KRPMNAFMVWSQIERRKIMEQSPDMHNAEISKRLGKRWKLLKDSDKIPFIREAERLRLKHMADYPDYK

variants of: B1; experiment: abundance fitness (aPCA) (normalised: wild type 0, dead -1); higher = more abundant; growth selection in yeast, the domain comes from the species named; conditions: Homo sapiens

Solved entries:
| Mut | abundance fitness |
| --- | --- |
| A28D | -0.152 |
| P23L | -0.52 |
| K32S | -0.067 |
| S31M | 0.072 |
| M61G | 0.022 |
| E54A | -0.29 |

List abundance fitness for every entry below, keeping the order given.
1. M61Y
2. R33Q
3. E54F
4. E29W
5. M25S
6. P23S
7. Y67M

-0.319
0.332
-0.574
-0.84
-0.416
-0.47
-0.069

List abundance fitness for every entry below, keeping the order given.
1. K59E
2. R55D
3. H26N
4. S22G
5. E54L

[-0.017, -0.136, 0.289, -0.4, -0.501]

List abundance fitness for every entry below, keeping the order given.
1. K46Y
2. Q21W
3. Y67Q
4. K46D

[-1, -0.884, 0.051, -0.524]
